Where these numbers come from: patent US8962646B2

Measured Ki, listed per entry for reference.
Test system: human κ opioid receptor (Homo sapiens (Human))
Measurement parameters: read-out: Binding affinity κ (Ki, nm)
I only need the number, in nM, no unit after it.

{"Compound structure string": "CN1CC[C@]23CC(=O)CC[C@@]2(O)[C@H]1Cc1ccc(C(=O)NCCc2ccc(-c4cc[nH]c(=O)c4)cc2)c(O)c13", "Ki [nM]": 140}

Here is the next item to consider.
Please provide the recorded Ki for CN1CC[C@]23CC(=O)CC[C@@]2(O)[C@H]1Cc1ccc(C(=O)NCCc2ccc(-c4cnc(O)nc4O)cc2)c(O)c13 , tested on human κ opioid receptor (Homo sapiens (Human)).
190

====

Test system: human δ opioid receptor (Homo sapiens (Human))
Test summary: Receptor binding, competitive displacement of [3H]naltrindole
Measurement parameters: CHO cell membranes, cloned human receptor, 0.2 nM [3H]naltrindole; read-out: Binding affinity δ (Ki, nm)
Endpoint: pKi
Scale for pKi: -log10 of concentration given in mol/L; no unit attached.

Consider the reported pKi for these compounds:
{"Compound": "CN1CC[C@]23CC(=O)CCC2[C@H]1Cc1ccc(C(=O)NCCc2nc4ccccc4[nH]2)c(O)c13 (stereo partly drawn)", "Measurement": 6.55}
{"Compound": "CO[C@@]12CCC(=O)C[C@@]13CCN(C)[C@@H]2Cc1ccc(C(=O)NCCc2ccc(-c4c[nH]c(=O)[nH]c4=O)cc2)c(O)c13", "Measurement": 7.38}

Here is the next item to consider.
Would you kindly share the measured pKi for CN1CC[C@]23CC(=O)CC[C@@]2(O)[C@H]1Cc1ccc(C(=O)NCCc2ccc(-c4cc[nH]c(=O)c4)cc2)c(O)c13 ?
8.00

====

Test system: human δ opioid receptor (Homo sapiens (Human), UniProt P41143)
Test summary: Receptor binding, competitive displacement of [3H]naltrindole
Measurement parameters: CHO cell membranes, cloned human receptor, 0.2 nM [3H]naltrindole; read-out: Binding affinity δ (Ki, nm)
pKi: −log10 of the molar value.
Quick rule: pKi of at least 8 means True, below that means False.

// known answers, use as guide
{"Compound": "CN1CC[C@]23CC(=O)CC[C@@]2(O)[C@H]1Cc1ccc(C(=O)NCCc2nc4ccccc4[nH]2)c(O)c13", "Class name": "False"}
{"Compound": "CN1CC[C@]23CC(=O)CC[C@@]2(O)[C@H]1Cc1ccc(C(=O)NCCc2ccc(-c4cn[nH]c4)cc2)c(O)c13", "Class name": "True"}
{"Compound": "CN1CC[C@]23CC(=O)CC[C@@]2(O)[C@H]1Cc1ccc(C(=O)NCCc2ccc(-c4ccccc4)cc2)c(O)c13.Cl [B, reference compound]", "Class name": "True"}

Please turn your attention to the following entry.
Confirm if pKi reported for the compound C=C1CC[C@@]2(O)[C@H]3Cc4ccc(C(=O)NCCc5ccc(-c6c[nH]c(=O)[nH]c6=O)cc5)c(O)c4[C@@]2(CCN3C)C1 is 8 or above.
False
